Sourced from a melting point compilation (Tetko et al.; mined from patent text by program, amines drawn as free bases though some values may be those of a salt)

Quick list: melting point per entry.

CC(C)(C)OC(=O)C(Cc1ccccc1)c1ccc([N+](=O)[O-])cc1 (stereo not drawn) = 98 to 99 °C
CC(=O)OCC(O)COc1ccc2nc(S(N)(=O)=O)sc2c1 (stereo not drawn) = 173 to 175 °C

Now for another entry.
Requested read-out: melting point. Entry: O=C(Oc1cc(F)ccc1Br)c1cc2ccccc2oc1=O
173 to 175 °C

====

experimentalEndpoint: melting point

# annotated cases, reported melting point shown
CC(=O)OC1CSC(Oc2cncc(-c3ccc(C)cc3)c2)C(OC(C)=O)C1OC(C)=O (centres undefined) = 160 to 162 °C
CN(C)c1cnn(-c2ccccc2)c(=O)c1N = 188 to 189 °C
COc1cc(O)nc(C2CC2)n1 = 186 °C

Now for another entry.
Requested read-out: melting point. Entry: COc1cc(C(=O)Nc2ccc(S(=O)(=O)C(F)(F)F)cc2Cl)c(O)c(C(C)(C)C)c1
126 to 127 °C

====

experimentalEndpoint: melting point

N#Cc1ccc(C2NC(=O)NC2=O)c(N2CCCC2)c1 (stereo not given) = 154 °C
CCc1oc2ccccc2c1C(=O)c1ccc(Cl)c(S(N)(=O)=O)c1 = 170 to 172 °C
O=C(NCc1ccc(Cl)cc1)c1cc2c3c(cc(CN4CCOCC4)cn3c1=O)CCC2 = 200 to 201 °C

Requested read-out: melting point. Entry: N#Cc1c(-c2ccc(Cl)c(Cl)c2)cc(C2CC2)nc1Cl
158 to 160 °C

Requested read-out: melting point. Entry: FC(F)(F)/C(=C(\c1ccccc1)c1ccc(OCCN2CCCC2)cc1)c1ccccc1
84.5 to 86 °C

Requested read-out: melting point. Entry: Fc1ccccc1CNc1nc(Cl)ncc1F
117 to 118 °C

Requested read-out: melting point. Entry: CCOC(=O)c1ncn(-c2cc(C(=O)OC)c([N+](=O)[O-])cc2C(F)(F)F)n1
190 to 192 °C

Requested read-out: melting point. Entry: C=C1c2ccccc2CCc2ccccc21
65.1 °C

Requested read-out: melting point. Entry: NC(=O)C(CCCCCOc1cccc([N+](=O)[O-])c1C=O)C1NCCc2ccccc21 (stereo not given)
99 to 100 °C

Requested read-out: melting point. Entry: CC1(C)OCC(COc2cc(N)c([N+](=O)[O-])cc2I)O1 (racemic)
151 °C

====

experimentalEndpoint: melting point

# annotated cases, reported melting point shown
O=C(O)Cn1c(=O)c(=O)[nH]c2cc([N+](=O)[O-])c(-n3ccc(CN4CCN(Cc5ccccc5)CC4)c3)cc21 = > 230 °C
COc1ccc(C2=NN(C3CCN(C(=O)CCCNC(=O)OC(C)(C)C)CC3)C(=O)[C@@H]3CC=CC[C@H]23)cc1OC = 79 to 83 °C
O=C1CCCc2cc(I)ccc21 = 77 to 78 °C
CN(C)c1ccc(C(NCCO)C(O)c2ccccc2)cc1 (stereo not given) = 147 to 148 °C

Now for another entry.
Requested read-out: melting point. Entry: Cn1c(-c2cccs2)n[nH]c1=O
183 to 185 °C

====

experimentalEndpoint: melting point (°C)

(I) O=C(c1cc(Cl)ccc1O)c1cc(Cl)ccc1O
(II) O=C(O)c1ccccc1NCCNc1ccccc1C(=O)O
Lower melting point: I or II ? Could you answer with the label of the item you picked?
I
(I: 154 °C, II: 248 °C)

====

experimentalEndpoint: melting point

# annotated cases, reported melting point shown
COc1ccc(C2Sc3ccccc3N(CC(N)=O)C(=O)C2NC(=O)c2ccc3ccccc3c2)cc1 (stereo not drawn) = 243 to 245 °C
CCOC(=O)CCCN(C(=O)CCC1CCCCC1)C1N=C(c2ccccc2)c2ccccc2N(C)C1=O (stereo not drawn) = 103 to 105 °C

Now for another entry.
Requested read-out: melting point. Entry: Cc1oc(-c2ccccc2)nc1CCc1ccc(/C=C/CO)cc1
102 to 103 °C
